Tested on: IL-12 induced STAT4 phophorylation mediated by Tyk2/JAK2 (heterodimeric complex)
Assay: IL-12 Induced pSTAT4 in Human PBMC
Type: cell-based
Details: 1.7 ng/mL IL-12
pIC50: −log10 of the molar value.
Kindly supply the reported pIC50 values for the records listed here.

Solved entries (count: 3):
>>> df
                                   compound  property_name  result
0  CNc1cc(Nc2cccn(-c3ccc(N4CCOCC4)cc3)c2=O)nc2c(C(=O)N[C@H]3C[C@H]3F)cnn12          pIC50  > 7.00
1  CNc1cc(Nc2cccc(N3CCOC3=O)n2)nc2c(C(=O)N[C@H]3C[C@H]3F)cnn12          pIC50  > 7.00
2  CNc1cc(Nc2cc(Cl)cn(C3CCN(C)CC3)c2=O)nc2c(C(=O)NC3CC3)cnn12          pIC50  > 7.00

Record pIC50 per entry; entries follow.
1. CNc1cc(Nc2cccn(-c3cn(C)nc3F)c2=O)nc2c(C(=O)NC3CC3)cnn12
2. CNc1cc(Nc2cccn([C@@H]3CCCOC3)c2=O)nc2c(C(=O)NC3CC3)cnn12
3. CNc1cc(Nc2cccc(N3CCCC3=O)n2)nc2c(C(=O)NC3CC3)cnn12

Result block:
1: 6.30 to 7.00; 2: > 7.00; 3: > 7.00

List pIC50 for every entry below, keeping the order given.
1. COc1ncccc1Nc1cc(NCCCN2CCOCC2)n2ncc(C(=O)N[C@@H]3C[C@@H]3F)c2n1 (stereo in doubt)
2. CNc1cc(Nc2cccn(-c3cnco3)c2=O)nc2c(C(=O)N[C@@H]3C[C@@H]3F)cnn12

Result block:
1: 6.30 to 7.00; 2: > 7.00

---

Test system: IL-12 induced STAT4 phophorylation mediated by Tyk2/JAK2 (heterodimeric complex)
Assay: IL-12 Induced pSTAT4 in Human PBMC
Type: cell-based
Details: 1.7 ng/mL IL-12
pIC50: −log10 of the molar value.
Would you mind telling me the reported pIC50 of each entry?

Here are 2 compounds. What values of pIC50 were reported for them?
1. CNc1cc(Nc2cccn(-c3ccc(C(=O)N4CCCC4)cn3)c2=O)nc2c(C(=O)NC3CCC3)cnn12
2. CNc1cc(Nc2cccn([C@H]3[C@@H]4COC[C@@H]43)c2=O)nc2c(C(=O)N[C@@H]3C[C@@H]3F)cnn12

Result block:
1: 6.30 to 7.00; 2: > 7.00

Give me pIC50 for each of these compounds, listed below.
1. CNc1cc(Nc2cccn(-c3ccc(C)nn3)c2=O)nc2c(C(=O)NC3CCC3)cnn12
2. CNc1cc(Nc2cccnc2OC(C)C)nc2c(C(N)=O)cnn12
3. CNc1cc(Nc2cccn([C@H]3CCC[C@H](O)C3)c2=O)nc2c(C(=O)N[C@@H]3CC[C@H]3OC)cnn12
4. CNc1cc(Nc2cc(C)cc(F)c2)nc2c(C(=O)NC3CC3)cnn12
5. CNc1cc(Nc2cccn([C@H]3CCC[C@H](OC)C3)c2=O)nc2c(C(=O)N[C@@H]3CC[C@H]3OC)cnn12
6. CNc1cc(Nc2cccn3ccnc23)nc2c(C(=O)N[C@@H]3CC[C@H]3OC)cnn12

Result block:
["> 7.00", "6.30 to 7.00", "> 7.00", "> 7.00", "> 7.00", "> 7.00"]

---

Exercise: state measured pIC50 for each of the compounds provided.
Test system: GM-CSF induced STAT5 phosphorylation mediated by the JAK2/JAK2 homdimeric complex
Experiment: GM-CSF Induced pSTAT5 in Human PBMC
Conditions: Homo sapiens, PBMC, 20 min, read-out: PBMC_GMCSF_pSTAT5 IC50, human PBMC; GM-CSF 5 ng/mL for 20 minutes; pSTAT5
pIC50: −log10 of the molar value.

Worked cases, answers included:
In [3]: df
Out[3]:
                                   compound  property_name  result
0  CNc1cc(Nc2cccnc2OC2CC2)nc2c(C(=O)NC3CCC3O)cnn12 (stereo not shown) [I-392]          pIC50  < 4.30
1  CNc1cc(Nc2cc(Cl)cn(-c3cc(C)n(C)n3)c2=O)nc2c(C(=O)NC3CC3)cnn12 [I-314]          pIC50  < 5.60
2  CNc1cc(-c2cn(C(C)C)c3ncccc23)nc2c(C(N)=O)cnn12 [I-222]          pIC50  < 5.60

Give pIC50 for each of the items listed below.
1. CNc1cc(Nc2cc(Cl)cn([C@H]3CCCOC3)c2=O)nc2c(C(=O)NC3CC3)cnn12 [I-782]
2. CNc1cc(Nc2cccn(C(C)C)c2=O)nc2c(C(=O)N[C@@H]3CC[C@H]3O)cnn12 [I-918]
3. CNc1cc(Nc2cccn([C@@H]3CC[C@H]3O)c2=O)nc2c(C(=O)N[C@@H]3C[C@@H]3F)cnn12 [I-999]
4. CNc1cc(-c2cn(C3CC3)c3ncccc23)nc2c(C(=O)NC3CC3)cnn12 [I-960]
5. CNc1cc(Nc2cc(Cl)cn([C@@H]3CCCOC3)c2=O)nc2c(C(=O)N[C@@H]3C[C@@H]3F)cnn12 [I-773]
6. CNc1cc(Nc2cc(Cl)cn(-c3ccn(C4CC4)n3)c2=O)nc2c(C(=O)NC3CC3)cnn12 [I-331]
7. [2H]C([2H])([2H])Oc1ncccc1Nc1cc(NC)n2ncc(C(=O)NCC(C)(C)CO)c2n1 [I-347]
8. CNc1cc(Nc2cccn([C@H]3CC[C@@](C)(OC)CC3)c2=O)nc2c(C(=O)NC3CC3)cnn12 [I-359]

Result block:
["< 4.30", "< 4.30", "< 4.30", "< 4.30", "< 4.90", "< 4.90", "< 4.30", "< 4.90"]

Dear colleague, could you send me pIC50 for each of the items below? Thanks.
1. CNc1cc(Nc2cccc3ocnc23)nc2c(C(=O)N[C@H]3C[C@H]3F)cnn12 [I-592]
2. CNc1cc(Nc2cccn(-c3cnc(C(=O)N(C)C)cn3)c2=O)nc2c(C(=O)NC3CC3)cnn12 [I-127]
3. CNc1cc(Nc2cccn([C@H]3[C@@H]4COC[C@@H]43)c2=O)nc2c(C(=O)N[C@H]3CC[C@@H]3OC)cnn12 [I-1088]
4. CNc1cc(Nc2cccn(-c3cnn(CC4CCOCC4)c3)c2=O)nc2c(C(=O)N[C@H]3C[C@H]3F)cnn12 [I-407]
5. CNc1cc(Nc2cccn(C3CCN(CCF)CC3)c2=O)nc2c(C(=O)N[C@H]3C[C@H]3F)cnn12 [I-570]

Result block:
1: < 4.90; 2: < 4.90; 3: < 4.30; 4: < 4.90; 5: < 4.30

For every item in the list below, what is its measured pIC50?
1. CNc1cc(Nc2cccc([C@@H]3CCCOC3)n2)nc2c(C(=O)N[C@@H]3CC[C@H]3O)cnn12 [I-665]
2. [2H]C([2H])([2H])Oc1ncc(F)cc1Nc1cc(NC)n2ncc(C(=O)NC3CC3)c2n1 [I-284]
3. CNc1cc(-c2cn(C(C)C)c3ncccc23)nc2c(C(=O)N[C@@H]3C[C@@H]3F)cnn12 (stereo in doubt) [I-225]
4. CNc1cc(Nc2cc(Cl)cn(-c3cnn(C)c3F)c2=O)nc2c(C(=O)NC3CC3)cnn12 [I-955]
5. CNc1cc(Nc2cccn([C@@H]3CCCN(CCF)C3)c2=O)nc2c(C(=O)N[C@@H]3CC[C@H]3OC)cnn12 [I-1095]
6. CNc1cc(Nc2cccc(C)c2Cl)nc2c(C(N)=O)cnn12 [I-14]

Result block:
["< 5.60", "< 4.90", "< 4.30", "< 4.90", "< 4.30", "< 4.30"]

// input: 8 compounds below; output: pIC50 for each
1. CNc1cc(Nc2cc(Cl)cn(C3CCCOC3)c2=O)nc2c(C(=O)N[C@H]3C[C@H]3F)cnn12 (stereo partly shown) [I-693]
2. CNc1cc(Nc2cccn(-c3cccc(F)c3)c2=O)nc2c(C(=O)N[C@H]3CC[C@H]3O)cnn12 [I-1004]
3. CNc1cc(Nc2cc(Cl)cn([C@@H]3CCCOC3)c2=O)nc2c(C(=O)NC3CC3)cnn12 [I-783]
4. CNc1cc(Nc2cc(Cl)cn([C@H]3CCCN(C)C3)c2=O)nc2c(C(=O)NC3CC3)cnn12 [I-820]
5. CNc1cc(Nc2cccn([C@H]3CCC[C@H]3O)c2=O)nc2c(C(=O)N[C@H]3CC[C@@H]3OC)cnn12 [I-1101]
6. CNc1cc(Nc2cccn([C@H]3CCC[C@@H](OC)C3)c2=O)nc2c(C(=O)N[C@@H]3CC[C@H]3O)cnn12 [I-993]
7. CNc1cc(Nc2cccn([C@@H]3CC[C@H]3O)c2=O)nc2c(C(=O)N[C@H]3CC[C@@H]3OC)cnn12 [I-1093]
8. [2H]C([2H])([2H])Nc1cc(Nc2cccnc2OC)nc2c(C(=O)N[C@@H]3C[C@@H]3F)cnn12 (stereo in doubt) [I-374]

Result block:
< 4.30
< 4.90
< 4.30
< 4.90
< 4.30
< 4.30
< 4.30
< 4.30

Query block: If you can, please state the reported pIC50 value of CNc1cc(Nc2cccn([C@H]3CC[C@@H]3O)c2=O)nc2c(C(=O)N[C@H]3CC[C@@H]3OC)cnn12 [I-1094] .
Result block: < 4.30
